- Tested on: Pseudomonas aeruginosa ATCC 27853 (museum strain)
- experiment.description: MIC, serial dilutions in Mueller-Hinton broth
- Assay type: cell-based
- particulars: inoculum 10^7 CFU/ml; gram-negative
value.kind: MIC, P. aerugenosa

> print(dat)
                                   compound                             tested.system     result
1  Cc1ncc(CSCCN2CCN(c3cc4c(cc3F)c(=O)c(C(=O)O)cn4C3CC3)CC2)c2c1OC(C)(C)OC2 [Compound I-4]  Pseudomonas aeruginosa ATCC 27853 (museum strain)  >64 µg/mL
2  Cc1nc(CN2CCN(c3cc4c(cc3F)c(=O)c(C(=O)O)cn4C3CC3)CC2)c(CO)c2c1OC(C)(C)OC2 [Compound I-10]  Pseudomonas aeruginosa ATCC 27853 (museum strain)  >64 µg/mL
3  CCCC1OCc2c(CN3CCN(c4cc5c(cc4F)c(=O)c(C(=O)O)cn5C4CC4)CC3)cnc(C)c2O1 (stereo not drawn) [Compound I-7]  Pseudomonas aeruginosa ATCC 27853 (museum strain)  >64 µg/mL
4  Cc1ncc(CSCCN2CCN(c3cc4c(cc3F)c(=O)c(C(=O)O)cn4C3CC3)CC2)c(CO)c1O [Compound I-5]  Pseudomonas aeruginosa ATCC 27853 (museum strain)   32 µg/mL
5  Cc1ncc(CN2CCN(c3cc4c(cc3F)c(=O)c(C(=O)O)cn4C3CC3)CC2)c2c1OC(C)(C)OC2 [Compound I-1]  Pseudomonas aeruginosa ATCC 27853 (museum strain)  >64 µg/mL
6  Cc1ncc(CN2CCN(c3cc4c(cc3F)c(=O)c(C(=O)O)cn4C3CC3)CC2)c2c1OC(C)OC2 (stereo not drawn) [Compound I-6]  Pseudomonas aeruginosa ATCC 27853 (museum strain)  >64 µg/mL
7  Cc1nc(CN2CCN(c3cc4c(cc3F)c(=O)c(C(=O)O)cn4C3CC3)CC2)c(CO)c(CO)c1O [Compound I-11]  Pseudomonas aeruginosa ATCC 27853 (museum strain)  >64 µg/mL
8  CCCCCCCCC1OCc2c(CN3CCN(c4cc5c(cc4F)c(=O)c(C(=O)O)cn5C4CC4)CC3)cnc(C)c2O1 (stereo not drawn) [Compound I-8]  Pseudomonas aeruginosa ATCC 27853 (museum strain)  >64 µg/mL
9  Cc1ncc(CN2CCN(c3cc4c(cc3F)c(=O)c(C(=O)O)cn4C3CC3)CC2)c(CO)c1O [Compound I-2]  Pseudomonas aeruginosa ATCC 27853 (museum strain)  >64 µg/mL

These entries and their values trace back to patent US10759810B2.
